MEASUREMENT PROTOCOL: Weekly food intake of SHR rats
Assay type: in vivo, rat
EXPERIMENTAL CONDITIONS: 120 mg/kg/d intragastric, week 5
Marks after values point to notes of the source that are not given here.
Reported Average dairy food intake values for a set of compounds

Below, 5 compounds whose answers are already recorded.
# COMPOUND, MEAS VALUE
data = [
    ("Cc1nc(C)c(C(=O)O[C@H]2C(=O)O[C@H]3O[C@]45C(=O)OC6C[C@@H](C(C)(C)C)C32[C@@]64[C@@H](O)[C@@H]2OC(=O)[C@@H](C)[C@@]25O)nc1C (stereo partly drawn)", "23.6^▴▴ g/d"),
    ("CCCCC(OC(C)=O)c1ccccc1C(=O)O[C@H]1C(=O)O[C@H]2O[C@]34C(=O)OC5C[C@@H](C(C)(C)C)C21[C@@]53[C@@H](O)[C@@H]1OC(=O)[C@@H](C)[C@@]14O (stereo partly drawn)", "22.8^▴▴ g/d"),
    ("CC1C(=O)OC2C(O)C34C5CC(C(C)(C)C)C36C(OC(=O)C6O)OC4(C(=O)O5)C12O (stereo not drawn) [GB, ginkgolide B]", "22.8^▴▴ g/d"),
    ("Cc1nc(C)c(CO[C@H]2C(=O)O[C@H]3O[C@]45C(=O)OC6C[C@@H](C(C)(C)C)C32[C@@]64[C@@H](O)[C@@H]2OC(=O)[C@@H](C)[C@@]25O)nc1C (stereo partly drawn)", "23.7^▴▴ g/d"),
    ("CC(=O)Oc1ccccc1C(=O)O[C@H]1C(=O)O[C@H]2O[C@]34C(=O)OC5C[C@@H](C(C)(C)C)C21[C@@]53[C@@H](O)[C@@H]1OC(=O)[C@@H](C)[C@@]14O (stereo partly drawn)", "23.0^▴▴ g/d"),
]

Alright, here's another compound for you.
Could you tell me which Average dairy food intake is on file for C[C@@H]1C(=O)O[C@H]2[C@H](O)[C@@]34C5C[C@@H](C(C)(C)C)C36[C@@H](OC(=O)[C@@H]6OC(=O)[C@H](c3ccccc3Cl)N3CCc6sccc6C3)O[C@@]4(C(=O)O5)[C@@]12O (stereo partly drawn) ? 23.5^▴▴ g/d

====

MEASUREMENT PROTOCOL: Weekly body weight of SHR rats
Assay type: in vivo, rat
EXPERIMENTAL CONDITIONS: 120 mg/kg/d intragastric, week 5
Marks after values point to notes of the source that are not given here.
Reported Body weight values for a set of compounds

# COMPOUND, Body weight
records = [
    ("C[C@@H]1C(=O)O[C@H]2[C@H](O)[C@@]34C5C[C@@H](C(C)(C)C)C36[C@@H](OC(=O)[C@@H]6OC(=O)[C@H](c3ccccc3Cl)N3CCc6sccc6C3)O[C@@]4(C(=O)O5)[C@@]12O (stereo partly drawn)", "281.7^▴▴ g"),
]

Could you tell me which Body weight is on file for Cc1nc(C)c(C(=O)O[C@H]2C(=O)O[C@H]3O[C@]45C(=O)OC6C[C@@H](C(C)(C)C)C32[C@@]64[C@@H](O)[C@@H]2OC(=O)[C@@H](C)[C@@]25O)nc1C (stereo partly drawn) ? 280.7^▴▴ g

Could you tell me which Body weight is on file for CC1C(=O)OC2C(O)C34C5CC(C(C)(C)C)C36C(OC(=O)C6O)OC4(C(=O)O5)C12O (stereo not drawn) [GB, ginkgolide B] ? 281.5^▴▴ g

Could you tell me which Body weight is on file for Cc1nc(C)c(CO[C@H]2C(=O)O[C@H]3O[C@]45C(=O)OC6C[C@@H](C(C)(C)C)C32[C@@]64[C@@H](O)[C@@H]2OC(=O)[C@@H](C)[C@@]25O)nc1C (stereo partly drawn) ? 280.4^▴▴ g

Could you tell me which Body weight is on file for CCCCC(OC(C)=O)c1ccccc1C(=O)O[C@H]1C(=O)O[C@H]2O[C@]34C(=O)OC5C[C@@H](C(C)(C)C)C21[C@@]53[C@@H](O)[C@@H]1OC(=O)[C@@H](C)[C@@]14O (stereo partly drawn) ? 281.2^▴▴ g

Could you tell me which Body weight is on file for CC(=O)Oc1ccccc1C(=O)O[C@H]1C(=O)O[C@H]2O[C@]34C(=O)OC5C[C@@H](C(C)(C)C)C21[C@@]53[C@@H](O)[C@@H]1OC(=O)[C@@H](C)[C@@]14O (stereo partly drawn) ? 280.6^▴▴ g
